target: Cytochrome P450 3A4 (Homo sapiens) (UniProt P08684); experiment: Cytochrome panel assay with activity outcomes; conditions: recombinant CYP, pro-luciferin dealkylation, luminescence, p450-cyp3a4; series mostly up to 57.1 µM
Sequence (P08684 whole entry, looked up): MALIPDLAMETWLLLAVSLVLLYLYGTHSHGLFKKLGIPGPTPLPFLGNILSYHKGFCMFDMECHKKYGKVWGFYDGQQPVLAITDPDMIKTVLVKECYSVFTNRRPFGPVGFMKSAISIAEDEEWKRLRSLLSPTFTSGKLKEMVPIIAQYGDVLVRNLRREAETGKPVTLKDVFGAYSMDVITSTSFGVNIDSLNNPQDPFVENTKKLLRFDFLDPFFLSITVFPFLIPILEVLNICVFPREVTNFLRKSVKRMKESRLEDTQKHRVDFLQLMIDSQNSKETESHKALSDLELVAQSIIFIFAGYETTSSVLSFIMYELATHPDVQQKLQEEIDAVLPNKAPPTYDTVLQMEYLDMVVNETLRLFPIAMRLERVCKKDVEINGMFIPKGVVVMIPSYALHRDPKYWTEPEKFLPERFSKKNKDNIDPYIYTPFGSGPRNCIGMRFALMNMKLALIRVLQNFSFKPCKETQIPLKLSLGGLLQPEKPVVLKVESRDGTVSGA
Screen size: about 16,000 compounds; about 5,100 (32%) were called active. Inconclusive results (about 25%) are left out. The call rests on the fitted dose curve; in most records, active means well fitted curve in the direction sought with a large enough effect; inconclusive means small, poorly fitted or top-dose-only effect, or effect the other way; inactive means no such curve, though single readings can be large or run the other way. This is one part of the list.
Your answer must be one of the following: class 1 for active, class 0 for inactive

Query: Hi, do you know how `COc1ccc([N+](=O)[O-])cc1COc1ccc2c(-c3ccccc3)cc(=O)oc2c1` came out in this test?
Result: class 0

Query: Also need `N[C@H](CCC(=O)NCC(=O)O)C(=O)O` , thanks.
Result: class 0

Query: Also need `O=C1[C@H]2[C@H]3[C@H](O)[C@H](O)C/C(=N/OC[C@@H](O)COCc4ccco4)[C@@H]3CC[C@@H]2C(=O)N1Cc1ccccc1` , thanks.
Result: class 1

Query: Also need `O=c1[nH]c2cc(Cl)ccc2c(O)c1-c1cccc(Oc2ccccc2)c1` , thanks.
Result: class 0

Query: Also need `O=S(=O)(N/N=C\C=C\c1ccccc1)c1ccc(Br)cc1` , thanks.
Result: class 1

Query: Also need `O=C(Nc1ccccc1)N1CCOCC1` , thanks.
Result: class 0

***
Query: Hi, do you know how `Brc1ccc(/C=C/C=N/Nc2nc3ccccc3s2)cc1` came out in this test?
Result: class 0

Query: Also need `O=C(Nc1cccc(NC(=O)N2CCN(c3ccccc3)CC2)c1)N1CCN(c2ccccc2)CC1` , thanks.
Result: class 1

Query: Also need `O=C1[C@H]2[C@H]3[C@H](O)[C@H](O)C/C(=N/OC[C@@H](O)COCc4ccco4)[C@@H]3CC[C@@H]2C(=O)N1Cc1ccc2c(c1)OCO2` , thanks.
Result: class 1

----------
molecular target: Cytochrome P450 3A4 (Homo sapiens); experiment: Cytochrome panel assay with activity outcomes; conditions: recombinant CYP, pro-luciferin dealkylation, luminescence, p450-cyp3a4; series mostly up to 57.1 µM
The campaign covered roughly 16,000 compounds. About 5,100 (32%) were called active. Another 25% or so got no clear call; they are omitted. The call rests on the fitted dose curve; in most records, active means well fitted curve in the direction sought with a large enough effect; inconclusive means small, poorly fitted or top-dose-only effect, or effect the other way; inactive means no such curve, though single readings can be large or run the other way. The list shows a part of the results.
Your answer must be one of the following: Y = active, N = inactive

Query: Hi, do you know how `CS(=O)(=O)N1CCC2(CCN(c3ccccc3)CC2)CC1` came out in this test?
Result: N

Query: Also need `Cc1ccc(C(=O)CNc2nc3c(c(=O)[nH]c(=O)n3C)n2Cc2ccccc2)cc1` , thanks.
Result: Y

***
Query: Hi, do you know how `O=C(Cn1c(=O)n(Cc2ccco2)c(=O)c2c3c(sc21)CCCCC3)c1ccccc1` came out in this test?
Result: Y

Query: Also need `Cn1c(=O)[nH]c(=O)c2c1nc(NCCCO)n2CCCc1ccccc1` , thanks.
Result: N

Query: Also need `Oc1cc(O)c2c(c1)O[C@H](c1ccc(O)c(O)c1)[C@H](O)C2` , thanks.
Result: N

Query: Also need `CCOc1cc(CNCCc2ccc(S(N)(=O)=O)cc2)cc(Cl)c1OCc1ccccc1` , thanks.
Result: Y

Query: Also need `N#C/C(=C/c1ccc(N2CCCC2)c([N+](=O)[O-])c1)c1nc2ccccc2[nH]1` , thanks.
Result: Y

Query: Also need `COc1ccc(C(=O)N2CCC[C@@]3(CCN(Cc4ccc(C#N)cc4)C3)C2)cc1` , thanks.
Result: Y

Query: Also need Cc1ccccc1OCC(O)Cn1c(NCc2ccccc2)nc2c1c(=O)[nH]c(=O)n2C (configuration not stated) , thanks.
Result: Y

Query: Also need `CS(=O)(=O)N1CCC[C@@]2(CCN(c3ccccc3)C2)C1` , thanks.
Result: Y

Query: Also need `O=C1c2c(O)cc(O)cc2O[C@@H](c2ccc(O)c(O)c2)[C@H]1O` , thanks.
Result: Y

Query: Also need `CS(=O)(=O)N1CCC[C@@]2(CCN(c3ncccn3)C2)C1` , thanks.
Result: N

Query: Also need `CCOc1cc(CNCCO)cc(Br)c1OCc1ccccc1Cl` , thanks.
Result: Y

Query: Also need `CS(=O)(=O)N1CCC2(CC1)CN(c1ccncc1)C2` , thanks.
Result: N

Query: Also need `CCn1c2ccccc2c2cnc(N=CN(C)C)c(C#N)c21` , thanks.
Result: Y

Query: Also need `COc1ccccc1CNc1ccnc(-c2ccc3c(c2)OCO3)n1` , thanks.
Result: Y

Query: Also need `Cc1nc2sccn2c(=O)c1Cl` , thanks.
Result: N

Query: Also need `CC(=O)c1c(O)c(C)c(-c2ccccc2)n(-c2ccccc2)c1=O` , thanks.
Result: N

Query: Also need `CCOc1cc(CNCCc2ccc(S(N)(=O)=O)cc2)ccc1OCc1ccc(Cl)cc1` , thanks.
Result: Y

----------
molecular target: Cytochrome P450 3A4 (Homo sapiens); assay: Cytochrome panel assay with activity outcomes; conditions: recombinant CYP, pro-luciferin dealkylation, luminescence, p450-cyp3a4; series mostly up to 57.1 µM; on activity, negative = inhibition: on the % scale 0 is the no-effect control and ±100 the full control effect
Screen size: about 16,000 compounds; about 5,100 (32%) were called active. Roughly 25% stayed inconclusive and do not appear here. The list shows a part of the results.
result.type: activity, negative = inhibition

Solved entries (count: 5):
Query: # get_value(readout='activity, negative = inhibition', item= `CCOc1ccccc1Nc1ccc(N)cc1S(=O)(=O)O` )
Result: -9.59% [at 11.4 µM] (inactive)

Query: Also need `NC1=N[C@H](c2ccc(Cl)cc2)N(c2ccc(S(=O)(=O)Nc3ncccn3)cc2)C(N)=N1` , thanks.
Result: 6.25% [at 11.4 µM] (inactive)

Query: Also need `CCOC(=O)N/N=C1/C[C@@H](O)[C@@H](O)[C@@H]2[C@@H]3C(=O)N(Cc4ccccc4)C(=O)[C@H]3CC[C@H]12` , thanks.
Result: -22% [at 11.4 µM] (inactive)

Query: Also need `CCCOc1ccc(C(=O)NNC(=S)NC(=O)CC)cc1` , thanks.
Result: -8.65% [at 2.29 µM] (inactive)

Query: Also need `O=S(=O)(O)c1cc(O)c2c(N=Cc3ccccc3O)cc(S(=O)(=O)O)cc2c1` , thanks.
Result: 0.658% [at 11.4 µM] (inactive)

Now for the compound whose activity, negative = inhibition we want.
Query: # get_value(readout='activity, negative = inhibition', item= `O=C1OCCC=C1[C@@H](O)CCc1ccccc1` )
Result: -19.7% [at 11.4 µM] (inactive)

----------
molecular target: Cytochrome P450 3A4 (Homo sapiens); assay: Cytochrome panel assay with activity outcomes; details: recombinant CYP, pro-luciferin dealkylation, luminescence, p450-cyp3a4; series mostly up to 57.1 µM
Among all 16,000 compounds or so, about 5,100 (32%) were called active. Roughly 25% stayed inconclusive and do not appear here. Calls follow the shape of the dose curve; as a rule, active = well fitted curve in the direction sought with a large enough effect; inconclusive = small, poorly fitted or top-dose-only effect, or effect the other way; inactive = no such curve, though single readings can be large or run the other way. This is one part of the list.
Your answer must be one of the following: t = active, f = inactive

Query: Hi, do you know how `CSc1nc(N)c2ncn([C@@H]3O[C@@H](COP(=O)(O)OP(=O)(O)O)[C@@H](O)[C@H]3O)c2n1` came out in this test?
Result: f

Query: Also need `Clc1ccc(Sc2ccc(/C=N/n3cnnc3)o2)cc1` , thanks.
Result: t

Query: Also need `Cc1cccc(CCNc2nc3ccccc3n3nnnc23)c1` , thanks.
Result: f

Query: Also need `O=c1c(CCc2ccccc2)nc2cncnc2n1Cc1ccccc1Cl` , thanks.
Result: t

Query: Also need `CC(=O)c1cc2c(cc1NC(=O)CCCC(=O)O)OCO2` , thanks.
Result: f

Query: Also need `CN=C1S/C(=C\c2ccc(Sc3ccc(Cl)cc3)o2)C(=O)N1C` , thanks.
Result: f

Query: Also need `Nc1nc2n[nH]nc2c(=O)[nH]1` , thanks.
Result: f

Query: Also need `CC(=O)c1cc2c(cc1NC(=O)c1c(-c3ccccc3)noc1C)OCO2` , thanks.
Result: t

Query: Also need `O=c1c(CCc2ccccc2)nc2cncnc2n1Cc1ccc(F)cc1` , thanks.
Result: t

Query: Also need `CCc1ccc2c(c1)cc(CN(C(=S)Nc1cccc(C)c1)C1CC1)c1nnnn12` , thanks.
Result: t

Query: Also need CCOC(=O)N1CCC(NC(=O)CCC(=O)N2CC(C)Oc3ccc(C)cc32)CC1 (configuration not stated) , thanks.
Result: t

Query: Also need CCCCCCCCN1C(=O)N(C)C(N(O)C(=O)NC)C1(C)C (configuration not stated) , thanks.
Result: t

----------
biological target: Cytochrome P450 3A4 (Homo sapiens) (UniProt P08684); assay: Cytochrome panel assay with activity outcomes; settings: recombinant CYP, pro-luciferin dealkylation, luminescence, p450-cyp3a4; series mostly up to 57.1 µM
About 5,100 (32%) of roughly 16,000 compounds were called active. Another 25% or so got no clear call; they are omitted. Calls follow the shape of the dose curve; as a rule, active = well fitted curve in the direction sought with a large enough effect; inconclusive = small, poorly fitted or top-dose-only effect, or effect the other way; inactive = no such curve, though single readings can be large or run the other way. The list shows a part of the results.
Your answer must be one of the following: active, inactive

See these solved cases before continuing.
Query: Hi, do you know how `CN1CCN(c2ncc3nc(-c4cn(C)c5ccccc45)c(=O)n(CCc4ccccc4)c3n2)CC1` came out in this test?
Result: active

Query: Also need `CN1CCN(c2ncc3nc(-c4ccccc4)c(=O)n(C)c3n2)CC1` , thanks.
Result: inactive

Query: Also need `Cn1cc(-c2nc3cnc(N4CCNCC4)nc3n(Cc3ccc(F)cc3)c2=O)c2ccccc21` , thanks.
Result: active

Query: Also need `O=C(O)[C@H]1C[C@@H](CP(=O)(O)O)CCN1` , thanks.
Result: inactive

Here is another compound to look at.
Query: Hi, do you know how `CN1CCN(c2ncc3ncc(=O)n(-c4ccccc4)c3n2)CC1` came out in this test?
Result: inactive
